FYI, the data here is from patent US7118895B2.

tested on: Crude diglycosidase; test: Examination of substrate concentration in the conversion into isoflavone aglycons by diglycosidase using soybean materials; assay type: biochemical, Penicillium multicolor IAM7153; settings: soymilk, substrate concentration 5%, heat treatment of enzyme no, reaction time 0 h;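 also: percent of the isoflavone family total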
Metric name: Decomposition efficiency: ratio of each glycoside/aglycon within its isoflavone family

COc1cc2c(=O)c(-c3ccc(O)cc3)coc2cc1O[C@@H]1O[C@H](COC(C)=O)[C@@H](O)[C@H](O)[C@H]1O [acetyl-glycitin]    not detected
CC(=O)OC[C@H]1O[C@@H](Oc2cc(O)c3c(=O)c(-c4ccc(O)cc4)coc3c2)[C@H](O)[C@@H](O)[C@@H]1O [acetyl-genistin]    not detected
COc1cc2c(=O)c(-c3ccc(O)cc3)coc2cc1O[C@@H]1O[C@H](COC(=O)CC(=O)O)[C@@H](O)[C@H](O)[C@H]1O [malonylglycitin, 6″-O-malonylglycitin]    50.6%

====

System: Crude diglycosidase
Test: Examination of pH in the conversion into isoflavone aglycons by diglycosidase using soybean materials
Format: biochemical, Penicillium multicolor IAM7153
Conditions: pH6.2; heat treatment of enzyme: yes; reaction time 6 h
Experimental: A substrate solution of 450 μL was prepared by suspending 50 mg of each soybean material (roasted soy flour (manufactured by Fuji Shokuryo K.K.), soymilk (manufactured by Gitoh Shokuhin K.K.), defatted soybean (manufactured by Fuji Seiyu K.K.), concentrated soybean protein (manufactured by Fuji Seiyu K.K.)), and adjusting the pH to 2 to 11 with hydrochloric acid or sodium hydroxide. […]
Metric name: Decomposition efficiency of daidzin family in soymilk (%)

O=c1c(-c2ccc(O)cc2)coc2cc(O[C@@H]3O[C@H](CO)[C@@H](O)[C@H](O)[C@H]3O)ccc12    40.6

[1] O=c1c(-c2ccc(O)cc2)coc2cc(O)ccc12
[2] O=C(O)CC(=O)OC[C@H]1O[C@@H](Oc2ccc3c(=O)c(-c4ccc(O)cc4)coc3c2)[C@H](O)[C@@H](O)[C@@H]1O
Given 1 and 2 , report the one with the higher recorded Decomposition efficiency of daidzin family in soymilk. # respond with the chosen item's label 2

====

system: Crude diglycosidase; assay: Examination of temperature in the conversion into isoflavone aglycons by diglycosidase using soybean materials; type: biochemical, Penicillium multicolor IAM7153; settings: 65° C., heat treatment of enzyme no, reaction time 6 h
Metric name: Decomposition efficiency of genistin family in defatted soybean (%)

CC(=O)OC[C@H]1O[C@@H](Oc2cc(O)c3c(=O)c(-c4ccc(O)cc4)coc3c2)[C@H](O)[C@@H](O)[C@@H]1O [acetylgenistin, 6″-O-acetylgenistin]    1.1
O=C(O)CC(=O)OC[C@H]1O[C@@H](Oc2cc(O)c3c(=O)c(-c4ccc(O)cc4)coc3c2)[C@H](O)[C@@H](O)[C@@H]1O [malonylgenistin, 6″-O-malonylgenistin]    41.1

[A] O=c1c(-c2ccc(O)cc2)coc2cc(O)cc(O)c12 [genistein]
[B] O=c1c(-c2ccc(O)cc2)coc2cc(O[C@@H]3O[C@H](CO)[C@@H](O)[C@H](O)[C@H]3O)cc(O)c12 [genistin]
Sorting ascending by Decomposition efficiency of genistin family in defatted soybean, which comes first: A or B ? # respond with the chosen item's label B
(B: 3.3%, A: 54.5%)

====

test system: β-Glucosidase derived from almond; assay: Reactivity toward various isoflavone glycosides (HPLC); format: biochemical; set-up: unit not given here; conditions: Reaction time 6 h; 55 °C, pH 4.0
Metric name: glucoside

O=C(O)CC(=O)OC[C@H]1O[C@@H](Oc2ccc3c(=O)c(-c4ccc(O)cc4)coc3c2)[C@H](O)[C@@H](O)[C@@H]1O    100
O=c1c(-c2ccc(O)cc2)coc2cc(O[C@@H]3O[C@H](CO)[C@@H](O)[C@H](O)[C@H]3O)cc(O)c12    88.2
COc1cc2c(=O)c(-c3ccc(O)cc3)coc2cc1O[C@@H]1O[C@H](COC(=O)CC(=O)O)[C@@H](O)[C@H](O)[C@H]1O    100
O=C(O)CC(=O)OC[C@H]1O[C@@H](Oc2cc(O)c3c(=O)c(-c4ccc(O)cc4)coc3c2)[C@H](O)[C@@H](O)[C@@H]1O    100
CC(=O)OC[C@H]1O[C@@H](Oc2cc(O)c3c(=O)c(-c4ccc(O)cc4)coc3c2)[C@H](O)[C@@H](O)[C@@H]1O    100
